// data source = PubChem BioAssay

Test: liver-stage malaria parasite growth inhibition, primary screen, cell-based, HepG2, luciferase luminescence, HepG2 viability (AID 624349)
Settings: P. berghei liver stage in HepG2, luciferase luminescence, concentration not given here
The source made the active and inactive calls. No stated cut-off is given here; in the data, active means parasite load remaining mostly below about 12% (no sharp cut-off); inactive means mostly above about 10%.
Hi there, use one of these labels in your reply, thanks! yes (active), no (inactive)

compound	answerLabel
C[C@H]1[C@H](C)CC[C@]2(C(=O)O)CC[C@]3(C)C(=CC[C@@H]4[C@@]5(C)CC[C@H](O)C(C)(C)[C@@H]5CC[C@]43C)[C@H]12	no
C1CCN2C[C@@H]3C[C@@H](CN4CCCC[C@@H]34)[C@H]2C1	no
O=c1[nH]c2ccccc2n1CCCN1CCN(C(c2ccccc2)c2ccccc2)CC1	no

Prompt: What outcome does the record of this test show for `C[n+]1cccc(C(=O)[O-])c1` ?
Completion: no

Prompt: What outcome does the record of this test show for `CC(=O)Nc1ccc(OC(=O)c2ccccc2O)cc1` ?
Completion: no

Prompt: What outcome does the record of this test show for `CC(=O)O[C@H]1C[C@@]2(C)[C@@H](C[C@@H](O)[C@H]3[C@@]4(C)CC[C@@H](O)[C@@H](C)[C@@H]4CC[C@@]32C)/C1=C(\CCC=C(C)C)C(=O)O` ?
Completion: no

Prompt: What outcome does the record of this test show for `CC(C)NC[C@@H](O)COc1ccc(CC(N)=O)cc1` ?
Completion: no

Prompt: What outcome does the record of this test show for CC(C(=O)O)c1ccc2c(c1)Cc1cccnc1O2 (stereo not given) ?
Completion: no

Prompt: What outcome does the record of this test show for `CCCCCCCCCCCC1=C(O)C(=O)C=C(O)C1=O` ?
Completion: no
